# TARGET: human p38 kinase alpha (Homo sapiens)
# Construct: The coding region of the human p38a cDNA was obtained by PCR-amplification from RNA isolated from the human monocyte cell line THP.1; GST (N); made in house; host or cells: E. coli DH10B
# Sequence (Q16539 whole entry): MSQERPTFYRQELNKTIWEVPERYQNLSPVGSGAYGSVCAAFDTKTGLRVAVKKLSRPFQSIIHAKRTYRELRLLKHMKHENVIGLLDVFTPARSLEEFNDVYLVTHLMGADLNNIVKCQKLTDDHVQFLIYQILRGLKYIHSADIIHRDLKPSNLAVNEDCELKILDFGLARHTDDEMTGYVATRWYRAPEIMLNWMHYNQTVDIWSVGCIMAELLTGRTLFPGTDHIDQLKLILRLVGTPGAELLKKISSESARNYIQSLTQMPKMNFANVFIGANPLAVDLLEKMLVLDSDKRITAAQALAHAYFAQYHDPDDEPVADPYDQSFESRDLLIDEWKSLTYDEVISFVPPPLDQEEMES
# ASSAY DETAILS: p38 kinase in vitro assay, phosphorylation of biotinylated PHAS-I with gamma 32P-ATP
# Type: biochemical
# ASSAY CONTEXT: read-out: P38 alpha kinase IC50
Provide the reported IC50 of each item.
One number for each entry, in nM.

Would you please look over these solved cases?
INSERT INTO assay_data (molecule, measure_unit, observed) VALUES
  ('CN1CCC(c2[nH]nc(-c3ccc(C(F)(F)F)cc3)c2-c2ccncc2)CC1', 'nM', 48),
  ('O=C(NCc1[nH]nc(-c2ccc(F)cc2)c1-c1ccncc1)c1cnc2ccccc2n1', 'nM', 5760),
  ('O=C(NCc1[nH]nc(-c2ccc(F)cc2)c1-c1ccncc1)c1ccc(F)cc1C(F)(F)F', 'nM', 330),
  ('C[C@@H](NC(=O)c1ccc(F)c(C(F)(F)F)c1)c1[nH]nc(-c2ccc(F)cc2)c1-c1ccncc1', 'nM', 1000),
  ('CS(=O)(=O)N[C@H]1CC[C@@H](c2[nH]nc(-c3ccc(Cl)cc3)c2-c2ccncc2)CC1', 'nM', 25);

Hi! Can you tell me IC50 for each of these molecules?
1. CC(Oc1ccccc1)C(=O)NCc1[nH]nc(-c2ccc(F)cc2)c1-c1ccncc1 (stereo not shown) [Example B-0087]
2. C[C@@H](NS(=O)(=O)c1cc(S(=O)(=O)c2ccccc2)cs1)c1[nH]nc(-c2ccc(F)cc2)c1-c1ccncc1

[550, 280]

Would you be so kind as to report IC50 for each listed record?
1. C[C@@H](NS(=O)(=O)c1ccccc1Cl)c1[nH]nc(-c2ccc(F)cc2)c1-c1ccncc1
2. COc1ccc(NC(=O)N[C@H](C)c2[nH]nc(-c3ccc(F)cc3)c2-c2ccncc2)cc1
3. CCOC(=O)NCc1[nH]nc(-c2ccc(F)cc2)c1-c1ccncc1

[52, 850, 210]

List the reported IC50 of each molecule below.
1. CCCS(=O)(=O)NC(Cc1ccccc1)c1[nH]nc(-c2ccc(F)cc2)c1-c1ccncc1 (stereo not shown) [Example B-0760]
2. C[C@@H](NC(=O)Nc1ccccc1F)c1[nH]nc(-c2ccc(F)cc2)c1-c1ccncc1
3. CC(=O)Nc1nc(C)c(S(=O)(=O)NCc2[nH]nc(-c3ccc(F)cc3)c2-c2ccncc2)s1
4. Cc1ccc(C(=O)NC(C)c2[nH]nc(-c3ccc(F)cc3)c2-c2ccncc2)cc1 (stereo not shown) [Example B-0671]
5. COc1ccc(Cl)cc1S(=O)(=O)NCc1[nH]nc(-c2ccc(F)cc2)c1-c1ccncc1
6. C[C@@H](NC(=O)N[C@H](C)c1[nH]nc(-c2ccc(F)cc2)c1-c1ccncc1)c1ccccc1 [Example B-0417]

10
380
400
6380
61
910

Can you give me IC50 for all of these, one by one?
1. C[C@@H](NC(=O)c1ccno1)c1[nH]nc(-c2ccc(F)cc2)c1-c1ccncc1
2. CC(C)(N)C(=O)NCc1[nH]nc(-c2ccc(F)cc2)c1-c1ccncc1
3. C=CCN1CCC(c2[nH]nc(-c3ccc(Cl)cc3)c2-c2ccncc2)CC1
4. CS(=O)(=O)NC(Cc1ccccc1)c1[nH]nc(-c2ccc(F)cc2)c1-c1ccncc1 (stereo not shown)
5. CC(C)COC(=O)N[C@H](C)c1[nH]nc(-c2ccc(F)cc2)c1-c1ccncc1

1: 1440; 2: 700; 3: 8; 4: 15; 5: 410
